Target: T1, huMUC16, AA13789-14451
T1 construct: also called MUC16 Antigen (human MUC16 AA13789-14451)
T1 chain: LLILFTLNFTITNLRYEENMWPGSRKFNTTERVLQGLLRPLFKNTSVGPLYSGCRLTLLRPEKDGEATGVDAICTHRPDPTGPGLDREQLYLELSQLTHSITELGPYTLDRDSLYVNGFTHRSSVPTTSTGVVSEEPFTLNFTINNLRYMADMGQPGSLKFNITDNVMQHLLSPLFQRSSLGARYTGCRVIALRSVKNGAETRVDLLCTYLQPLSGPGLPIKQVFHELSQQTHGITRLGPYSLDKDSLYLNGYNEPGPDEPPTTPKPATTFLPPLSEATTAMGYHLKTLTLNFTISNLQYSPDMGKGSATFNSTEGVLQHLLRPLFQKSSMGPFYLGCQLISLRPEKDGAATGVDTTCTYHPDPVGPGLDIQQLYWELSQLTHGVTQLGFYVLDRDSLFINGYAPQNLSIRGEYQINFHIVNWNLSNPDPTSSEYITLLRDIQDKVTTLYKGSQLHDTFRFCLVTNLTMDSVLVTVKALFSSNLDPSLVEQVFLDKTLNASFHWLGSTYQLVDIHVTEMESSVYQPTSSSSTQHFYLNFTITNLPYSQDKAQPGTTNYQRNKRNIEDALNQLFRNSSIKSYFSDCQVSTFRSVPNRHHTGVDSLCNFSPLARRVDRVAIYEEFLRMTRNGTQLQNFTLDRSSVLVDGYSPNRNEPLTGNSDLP
Assay: binding ELISA on huMUC16 AA13789-14451
QUANTITY_NAME: binding result

[[record]]
binder = "D41 (antibody, V domains shown, Anti-MUC16 mAb) VH: EVQLLESGGGLVQPGGSLRLSCAASGFTFSSYEMNWVRQAPGKGLEWVGRIKSKTDGGTTDYAAPVKGRFTISRDDSKNTLYLQMNSLKTEDTAVYYCTTDLAAVAGLFDYWGQGTTVTVSS VL: DIQLTQSPSSLSASVGDRVTITCQASQDISNYLNWYQQKPGKAPKLLIYDASNLETGVPSRFSGSGSGTDFTLTISSLQPEDFATYYCQQSYSTPWKFGQGTKVEIK"
measurement = "binds"

[[record]]
binder = "B76 (antibody, V domains shown, Anti-MUC16 mAb) VH: QMQLVQSGAEVKKPGSSVKVSCKASGGTFSSYAISWVRQAPGQGLEWMGGIIPIFGTANYAQKFQGRVTITADESTSTAYMELSSLRSEDTAVYYCARSITDYYDSSGYYFRPHFNTGYYYGMDVWGQGTTVTVSS VL: NIQLTQSPSSLSASVGDRVTITCRASQGINNYLAWYQQKPGKVPKLLIYAASTLQSGVPSRFSGSGSGTDFTLTITNLQPDDFATYYCQQYDTFSETFGPGTKVEIK"
measurement = "binds"

[[record]]
binder = "D1 (antibody, V domains shown, Anti-MUC16 mAb) VH: QVQLVQSGAEVKKPGSSVKVSCKASGGTFSSYAISWVRQAPGQGLEWMGGIIPIFGTANYAQKFQGRVTITADESTSTAYMELSSLRSEDTAVYYCARAPMVRGVPPTPYYYYYGMDVWGQGTTVTVSS VL: EIVLTQSPATLSLSPGERATLSCRASQSVSNYLAWYQQKPGQAPRLLIYDASNRATGIPARFSGSGSGTDFTLTISSLEPEDFAVYYCQQRSNWPSFGQGTKVEIK"
measurement = "binds"

